- SYSTEM: human Y2 receptor (human) (UniProt P49146)
- Sequence (P49146 whole entry): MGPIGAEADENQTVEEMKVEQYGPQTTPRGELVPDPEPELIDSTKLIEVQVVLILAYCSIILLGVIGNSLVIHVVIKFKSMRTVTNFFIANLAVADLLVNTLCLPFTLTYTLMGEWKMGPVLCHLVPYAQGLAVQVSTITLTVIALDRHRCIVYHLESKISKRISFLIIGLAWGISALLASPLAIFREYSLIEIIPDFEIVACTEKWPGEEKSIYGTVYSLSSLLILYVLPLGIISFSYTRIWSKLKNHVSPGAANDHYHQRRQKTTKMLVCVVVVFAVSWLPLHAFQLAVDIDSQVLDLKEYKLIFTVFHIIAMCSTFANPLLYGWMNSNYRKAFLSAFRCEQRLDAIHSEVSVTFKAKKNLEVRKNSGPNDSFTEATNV
- PROTOCOL: RBA: [125I]-PYY displacement, hY2R/CHO membranes
Non-standard residues stand in square brackets, D forms with d. No end group written: not given here. *: point of attachment. Phe(4-NH2) = Nc1ccc(C[C@H](N)C(=O)O)cc1; Cha = N[C@@H](CC1CCCCC1)C(=O)O; Abu = CC[C@H](N)C(=O)O; Aib = CC(C)(N)C(=O)O; Bz = O=C(c1ccccc1)*
Each entry below lists one item and its recorded IC50 Ratio (vs PYY(3-36)) value.

| BINDER | IC50 Ratio (vs PYY(3-36)) |
| --- | --- |
| Bz-RH[Cha]IN[Phe(4-NH2)]ITRQR[Cha]-NH2 (SMILES CC[C@H](C)[C@H](NC(=O)[C@H](CC1CCCCC1)NC(=O)[C@H](Cc1c[nH]cn1)NC(=O)[C@H](CCCNC(=N)N)NC(=O)c1ccccc1)C(=O)N[C@@H](CC(N)=O)C(=O)N[C@@H](Cc1ccc(N)cc1)C(=O)N[C@H](C(=O)N[C@H](C(=O)N[C@@H](CCCNC(=N)N)C(=O)N[C@@H](CCC(N)=O)C(=O)N[C@@H](CCCNC(=N)N)C(=O)N[C@@H](CC1CCCCC1)C(N)=O)[C@@H](C)O)[C@@H](C)CC) [Benzoyl-[Cha27,36, Ile28,31, Phe(4NH2)30]-PYY(25-36)] | 12 |
| [dS]LR[Abu][Cha][Cha]NL[Aib]TRQR[Cha]-NH2 (N-terminus assumed; SMILES CC[C@H](NC(=O)[C@H](CCCNC(=N)N)NC(=O)[C@H](CC(C)C)NC(=O)[C@H](N)CO)C(=O)N[C@@H](CC1CCCCC1)C(=O)N[C@@H](CC1CCCCC1)C(=O)N[C@@H](CC(N)=O)C(=O)N[C@@H](CC(C)C)C(=O)NC(C)(C)C(=O)N[C@H](C(=O)N[C@@H](CCCNC(=N)N)C(=O)N[C@@H](CCC(N)=O)C(=O)N[C@@H](CCCNC(=N)N)C(=O)N[C@@H](CC1CCCCC1)C(N)=O)[C@@H](C)O) [[D-Ser23, Abu26, Cha27,28,36, Aib31]-PYY(23-36)] | 15 |

All figures here come from patent US20120172293A1.
